B1: HDV Ribozyme (parent)
chain: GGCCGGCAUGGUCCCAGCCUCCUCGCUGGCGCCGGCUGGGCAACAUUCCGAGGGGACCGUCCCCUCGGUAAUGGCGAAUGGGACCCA

Variants of: B1
protocol-text: self-cleavage, relative activity (ratio to wild type); higher = more cleavage; co-transcriptional
outcome-measure: self-cleavage

residue-sequence	recorded-result
GGCCGGCAUGGUCCCAGCCUCCUCCCUGGCGCCGGCUGGGCAACAUUCCGAGGGGACCGUCCCCUCGGUAAUGGCUAAUGGGACCCA [G25C G76U]	0.0852
GGCCAGCAUGGUCCCAGCCUCCUCGCUGGCGCCGGCUGGGCAACAUUCCGAGGGGACCGUCCCCUCGGUAACGGCGAAUGGGACCCA [G5A U72C]	0.142
GGCCGGCAUGGUCCCAGCCUCCUCGCUGGCGCCGGCUGGGCAACAUUCCGAGGGGACCGUCCCCUCGGUACUGGCGAAUGGGACCAA [A71C C86A]	0.831
GGCCGGCAUGGUCCCAGCCUCCUCGCUGGCGCCGGCUGGGCAACAUUCCGAGGGGACCGUCCCCUCGGUAAUGGCCAAUGGGACCAA [G76C C86A]	0.854
GGCCGGCAUGGUCCAAGCCUCCUCGCUGGCGCCGGCUGGGCAACAUGCCGAGGGGACCGUCCCCUCGGUAAUGGCGAAUGGGACCCA [C15A U47G]	0.35
GGCCGGCAUGGUCCCAGCCUCCUCGCUGGCGGCGGCUGGGCAACAUUCCGAGGGGACCGUCCCCUCGGUAAUGGCGAACGGGACCCA [C32G U79C]	0.0205
GGCCGGCAUGGUCCCAGCUUCCUCGCUGGCGCCGGCUGGGCAACAUUCCGAGGGGACCGUCCCCUCGGUAAUGGCUAAUGGGACCCA [C19U G76U]	0.288
GGCCGGCAUGGUCCCAGCCUCCUCGCUGGCGCCGGCUGGGCAACAUUCCGAGGGGACCGUCCCCACGGUAAUGGCGAAUGGCACCCA [U65A G82C]	0.614
GGCCGGCAUGGUCCCAGCCUCCUCGCUGGCGCCGGCUGGGCAACAUUCCGAGGGGACCGUCCCCUCGGUAAUGGCGAAUGGGAGCCU [C84G A87U]	0.842
GGCCGGCAUGGUCCCAGCCUCCUCGCUGGCGCCGGUUGGGCAUCAUUCCGAGGGGACCGUCCCCUCGGUAAUGGCGAAUGGGACCCA [C36U A43U]	0.095
GGCCGGCAUGGUCCCAGCCUCCUCGCUGGCGCCGGCUGGGCAACAUUCCGAGGGGACCGUCCCCUAGGUAAUGGCGAAUGCGACCCA [C66A G81C]	0.163
